Test system: Saccharomyces cerevisiae
Experiment: protein stability index of tFT-peptide fusion (C-terminal peptide) (PSI (0-1 scale)); higher = more stable (slower turnover)
Conditions: genetic background: das1 deletion; temperature: 30 C
readout-name: protein stability index
Write no unit; give the number alone.

Some entries whose results are on file:
{"sequence-string": "CKQWEISNMLKK [CSI1 C-terminal 12 aa]", "system": "Saccharomyces cerevisiae", "protein stability index": 0.738}
{"sequence-string": "YYYKNSYWPSHI [VPS36 C-terminal 12 aa]", "system": "Saccharomyces cerevisiae", "protein stability index": 0.694}
{"sequence-string": "KNVTINTRETPL [DAL81 C-terminal 12 aa]", "system": "Saccharomyces cerevisiae", "protein stability index": 0.694}
{"sequence-string": "SSDEEENEKELP [PWP2 C-terminal 12 aa]", "system": "Saccharomyces cerevisiae", "protein stability index": 0.679}
{"sequence-string": "TVNYNDKTISGN [VPS30 C-terminal 12 aa]", "system": "Saccharomyces cerevisiae", "protein stability index": 0.689}

**Q:** What value of measured protein stability index is listed for TLISGKEDGPTI [SRY1 C-terminal 12 aa] ?
**A:** 0.69

**Q:** What value of measured protein stability index is listed for IFRDYFYKSPSP [PIG1 C-terminal 12 aa] ?
**A:** 0.739

**Q:** What value of measured protein stability index is listed for AGIHPDRAKLLK [NOP6 C-terminal 12 aa] ?
**A:** 0.68

**Q:** What value of measured protein stability index is listed for SGGWDRSIKLWN [PRP4 C-terminal 12 aa] ?
**A:** 0.711

**Q:** What value of measured protein stability index is listed for ELLQSFSLVLTL [YKL153W C-terminal 12 aa] ?
**A:** 0.643

**Q:** What value of measured protein stability index is listed for LSFVLASLNANK [FUN14 C-terminal 12 aa] ?
**A:** 0.678

**Q:** What value of measured protein stability index is listed for WHKSQLEDMNGY [YHL012W C-terminal 12 aa] ?
**A:** 0.683

* * *

System: Saccharomyces cerevisiae
Experiment: protein stability index of tFT-peptide fusion (C-terminal peptide) (PSI (0-1 scale)); higher = more stable (slower turnover)
Settings: genetic background: wild type; temperature: 30 C
readout-name: protein stability index
Write no unit; give the number alone.

{"sequence-string": "NATYNDSESSLN [SPO13 C-terminal 12 aa]", "protein stability index": 0.721}
{"sequence-string": "DNDDDAGAVPTS [CDC13 C-terminal 12 aa]", "protein stability index": 0.684}
{"sequence-string": "RNIDVSNLPSLA [STM1 C-terminal 12 aa]", "protein stability index": 0.678}
{"sequence-string": "SNGFKEWRKSLK [RAI1 C-terminal 12 aa]", "protein stability index": 0.67}
{"sequence-string": "RLANIQSFFQRQ [TVP23 C-terminal 12 aa]", "protein stability index": 0.726}

// switching to the query sequence
**Q:** What value of measured protein stability index is listed for YTTVLSSQSSKL [PEX8 C-terminal 12 aa] ?
**A:** 0.855

* * *

protein stability index by entry:
Test system: Saccharomyces cerevisiae
Test: protein stability index of tFT-peptide fusion (C-terminal peptide) (PSI (0-1 scale)); higher = more stable (slower turnover)
Details: genetic background: wild type; temperature: 30 C
Write no unit; give the number alone.

{"sequence-string": "CESRSIVSFVLL", "protein stability index": 0.73}
{"sequence-string": "YEHPRLRNGSIM", "protein stability index": 0.8}
{"sequence-string": "FSGSSFNGLCSF", "protein stability index": 0.701}
{"sequence-string": "MPPRNAENRSLP", "protein stability index": 0.679}
{"sequence-string": "GGLVPPLEGLVR", "protein stability index": 0.677}
{"sequence-string": "GCGGRARAGAGG", "protein stability index": 0.697}
{"sequence-string": "CPYSNAFALCVF", "protein stability index": 0.272}
{"sequence-string": "TRLGWSWGFAHR", "protein stability index": 0.719}

**Q:** What value of measured protein stability index is listed for "EKKKTKKKTIKK" ?
**A:** 0.636

**Q:** What value of measured protein stability index is listed for "FPYLLCPLFPWP" ?
**A:** 0.665
